Consider the following sequences and their measured self-splicing fitness (ln) readings.
- testMethodNotes: self-splicing fitness, log relative to wild type (ln ratio); higher = more splicing; Tetrahymena group I intron in knt gene, E. coli kanamycin selection, DiMSum; sequences stand for … in CUCUCU…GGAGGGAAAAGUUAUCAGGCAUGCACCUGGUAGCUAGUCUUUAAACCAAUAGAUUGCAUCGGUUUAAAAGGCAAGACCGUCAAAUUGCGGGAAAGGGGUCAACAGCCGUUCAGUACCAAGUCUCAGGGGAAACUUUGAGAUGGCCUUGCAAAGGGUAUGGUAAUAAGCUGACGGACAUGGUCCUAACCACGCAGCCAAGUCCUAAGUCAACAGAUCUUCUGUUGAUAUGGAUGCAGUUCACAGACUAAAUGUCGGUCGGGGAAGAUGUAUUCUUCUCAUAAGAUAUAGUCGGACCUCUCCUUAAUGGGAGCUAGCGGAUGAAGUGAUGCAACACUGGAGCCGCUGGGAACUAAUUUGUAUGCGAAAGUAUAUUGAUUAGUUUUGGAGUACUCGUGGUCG;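 also: selection with 25 µg/mL kanamycin versus none on LB agar overnight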
- protocolConditions: 30 °C
metric: self-splicing fitness (ln)

[[record]]
chain = "AAGGAGCAAUAUUACGUCAA"
measurednumber = -1.97

[[record]]
chain = "UUCGAGCAAUAUUACGGCAG"
measurednumber = -2.05

[[record]]
chain = "GCCUAGCAAUAUUACGAGCA"
measurednumber = -2.26

[[record]]
chain = "AUCAAGCAAUAUUACGUUCC"
measurednumber = -2.85

[[record]]
chain = "UUUGAGCAAUAUUACGAAGA"
measurednumber = -2.31

[[record]]
chain = "ACGCAGCAAUAUUACGUUCC"
measurednumber = -1.71

[[record]]
chain = "UAGAAGCAAUAUUACGCAGU"
measurednumber = -4.08

[[record]]
chain = "UCGAAGCAAUAUUACGCGAA"
measurednumber = -2.42

[[record]]
chain = "AUACAGCAAUAUUACGCAGU"
measurednumber = -2.88

[[record]]
chain = "UUUAAGCAAUAUUACGGUGU"
measurednumber = -3.85

[[record]]
chain = "UAUAAGCAAUAUUACGUAAG"
measurednumber = -2.45

[[record]]
chain = "ACAAAGCAAUAUUACGCGUA"
measurednumber = -1.4

[[record]]
chain = "AUAUAGCAAUAUUACGCUCU"
measurednumber = -0.66

